Data origin, for the record: PubChem BioAssay AID1745844

Tested on: rodent lifetime carcinogenesis bioassay, tumor incidence TD50
Assay: carcinogenic potency in animals, long-term in vivo studies, CPDB compilation (AID 1745844)
Details: mouse; strain B6C3F1; males; inhaled; site: lung; lesion: alveolar/bronchiolar adenoma; dosed 100 weeks; study length 100 weeks
value-kind: TD50
Units required after the number.

Qu. Which TD50 reading was recorded for the compound "CCCl" ?
Ans. 12700 mg/kg/day

###

Test system: rodent lifetime carcinogenesis bioassay, tumor incidence TD50
Assay: carcinogenic potency in animals, long-term in vivo studies, CPDB compilation (AID 1745844)
Conditions: mouse; strain Swiss; females; by gavage; site: liver; lesion: hepatocellular carcinoma; dosed 52 weeks; study length 122 weeks
value-kind: TD50 (mg/kg/day)
Report as a plain number; the unit mg/kg/day is understood.

Qu. What does the data say about its TD50? Entry: "CCCCC/C=N/N(C)C=O"
Ans. 180

###

System: rodent lifetime carcinogenesis bioassay, tumor incidence TD50
Assay: carcinogenic potency in animals, long-term in vivo studies, CPDB compilation (AID 1745844)
Conditions: mouse; strain B6C3F1; females; inhaled; site: mammary gland; lesion: adenoacanthoma; dosed 83 weeks; study length 104 weeks
value-kind: TD50 (mg/kg/day)
Response body: numeric value in mg/kg/day, unit text excluded.

Qu. Request - read-out TD50 | tested on rodent lifetime carcinogenesis bioassay, tumor incidence TD50 | molecule "C=CC=C"
Ans. 87.7

###

Test system: rodent lifetime carcinogenesis bioassay, tumor incidence TD50
Assay: carcinogenic potency in animals, long-term in vivo studies, CPDB compilation (AID 1745844)
Settings: rat; strain Fischer 344; females; in drinking water; site: esophagus; lesion: carcinoma; dosed 37 weeks; study length 85 weeks
value-kind: TD50

Qu. What value of measured TD50 is listed for CC(O)CN(CC(O)CO)N=O (stereo unspecified) ?
Ans. 0.117 mg/kg/day

###

Tested on: rodent lifetime carcinogenesis bioassay, tumor incidence TD50
Assay: carcinogenic potency in animals, long-term in vivo studies, CPDB compilation (AID 1745844)
Settings: mouse; strain B6C3F1; males; in feed; site: any site (literature study); lesion: several types; types named in the paper; dosed 101 weeks; study length 103 weeks
value-kind: TD50 (mg/kg/day)
Record the value in mg/kg/day, omitting the unit from your answer.

Qu. May I ask what TD50 has been recorded for "CCC1(c2ccccc2)C(=O)NCNC1=O" ?
Ans. 77.6

###

Tested on: rodent lifetime carcinogenesis bioassay, tumor incidence TD50
Test: carcinogenic potency in animals, long-term in vivo studies, CPDB compilation (AID 1745844)
Details: rat; strain Osborne-Mendel; males; by gavage; site: liver; lesion: hepatocellular adenoma + hepatocellular carcinoma + neoplastic nodule; dosed 104 weeks; study length 105 weeks
value-kind: TD50 (mg/kg/day)
Field format: number, assumed mg/kg/day, no unit text.

Qu. Need TD50, item "Clc1cc2c(cc1Cl)Oc1cc(Cl)c(Cl)cc1O2"
Ans. 0.000391

###

Test system: rodent lifetime carcinogenesis bioassay, tumor incidence TD50
Assay: carcinogenic potency in animals, long-term in vivo studies, CPDB compilation (AID 1745844)
Conditions: mouse; strain CDF1; males; in feed; site: lung; lesion: several types; types named in the paper; dosed 91 weeks; study length 91 weeks
Activity calls are given as the source filed them. No rule for the calls is given here.
value-kind: TD50

Qu. Given the molecule "Cc1cc2ncccc2c2nc(N)n(C)c12" , what is its reported TD50?
Ans. 148 mg/kg/day (inactive)
